target.entity: human α1D adrenaline receptor (Homo sapiens)
Construct: expressed in transfected cells
Sequence (P25100 whole entry): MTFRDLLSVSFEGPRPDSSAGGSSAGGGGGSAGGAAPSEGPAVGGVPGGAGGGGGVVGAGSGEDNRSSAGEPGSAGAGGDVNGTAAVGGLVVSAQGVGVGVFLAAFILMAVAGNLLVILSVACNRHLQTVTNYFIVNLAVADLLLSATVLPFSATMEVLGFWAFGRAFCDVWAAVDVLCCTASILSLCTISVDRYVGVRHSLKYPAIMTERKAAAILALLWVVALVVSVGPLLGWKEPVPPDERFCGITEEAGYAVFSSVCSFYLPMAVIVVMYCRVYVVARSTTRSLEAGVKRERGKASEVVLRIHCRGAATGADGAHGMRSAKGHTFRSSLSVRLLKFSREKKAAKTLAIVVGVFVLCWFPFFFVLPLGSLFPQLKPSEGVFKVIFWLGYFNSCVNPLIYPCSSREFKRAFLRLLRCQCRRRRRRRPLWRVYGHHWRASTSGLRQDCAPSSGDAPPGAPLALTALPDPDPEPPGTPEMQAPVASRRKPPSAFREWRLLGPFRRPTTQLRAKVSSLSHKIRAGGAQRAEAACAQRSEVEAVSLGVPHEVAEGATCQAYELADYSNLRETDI
test.details: Measurement of α1D adrenaline receptor binding inhibitory activity ([3H] prazosin binding to membrane fraction of CHO-K1 cells expressing the receptor)
measurement.setup: α1D adrenaline receptor binding inhibitory rate at 1 μM compound; [3H] prazosin 2.5 nM; CHO-K1 membrane fraction 20 μg/well; room temperature 1 hr
Structures can show the parent of a compound that is named as a salt.
parameter.measured: inhibition at 1 µM (%)

{"columns": ["molecule", "result.units", "test.value"],
 "data": [
  ["C[S+]([O-])c1ccc(Cl)cc1Cn1cc(Cl)cc(C(N)=O)c1=N (stereo not shown) [Example 14, hydrochloride]", "%", 92],
  ["N=c1c(C(N)=O)cc(Cl)cn1Cc1cc(Cl)ccc1N1CCCC1=O [Example 35, hydrochloride]", "%", 89],
  ["CCS(=O)(=O)c1ccc(Cl)cc1Cn1cc(Cl)cc(C(N)=O)c1=N [Example 17, hydrochloride]", "%", 100],
  ["CCS(=O)(=O)c1ccc(F)cc1Cn1cc(Cl)cc(C(N)=O)c1=N [Example 24, hydrochloride]", "%", 98.4],
  ["CS(=O)(=O)c1ccc(F)cc1Cn1cc(Cl)cc(C(N)=O)c1=N [Example 18, hydrochloride]", "%", 93.5],
  ["CS(=O)(=O)c1ccc(Cl)cc1Cn1cc(Cl)cc(C(N)=O)c1=N [Example 1, hydrochloride]", "%", 100],
  ["CS(=O)(=O)c1cc(Cl)cc(Cn2cc(Cl)cc(C(N)=O)c2=N)c1 [Example 12, hydrochloride]", "%", 87.5],
  ["Cc1ccc(S(C)(=O)=O)c(Cn2cc(Cl)cc(C(N)=O)c2=N)c1 [Example 8, hydrochloride]", "%", 93.5],
  ["CS(=O)(=O)c1cc(Cn2cc(Cl)cc(C(N)=O)c2=N)ccc1Cl [Example 15, hydrochloride]", "%", 72.8],
  ["N=c1c(C(N)=O)cc(Cl)cn1Cc1cc(Cl)ccc1S(N)(=O)=O [Example 28, hydrochloride]", "%", 91.2]
]}
